Test system: CCF-STTG1 astrocytoma cells (ApoE lipoprotein secretion)
Method notes: TR-FRET ApoE lipidation assay on media from CCF-STTG1 cells
Assay type: cell-based
Measurement context: Homo sapiens, media from CCF-STTG cells, 48 hours incubation, europium-conjugated anti-ApoE antibody and DiD, n=3, read-out: EC50 (TR-FRET signal, ApoE lipidation)

Structure smiles	EC50 / nM
O=S(=O)(c1ccccc1)N(CC(F)(F)F)c1ccc(C(O)(C(F)(F)F)C(F)(F)F)cc1	50.2
